B1: KRT18 (parent)
chain: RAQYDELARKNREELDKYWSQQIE

- Variants of: B1
- Assay Overview: protein stability index of a GFP-peptide fusion (GPS, HEK-293T) (PSI 1-6); higher = more stable;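 also: lentivirally expressed fusions sorted by FACS into six bins by GFP to DsRed ratio, PSI derived from sequencing read proportions per bin multiplied by bin number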
- Experimental Context: c terminus: a fixed tail appended
Readout Label: protein stability index
I'd appreciate a reply containing only the number, no unit.

| Residue Change | Assay Result |
| --- | --- |
| I23S | 4.96 |

Note protein stability index for the variant shown: E14P
3.81

Note protein stability index for the variant shown: I23N
4.39
